// values below are reported melting point

Observe how each entry below is paired with its result.
| Compound | melting point |
| --- | --- |
| Cn1c(C(C#N)c2ncccc2[N+](=O)[O-])nc2ccccc21 (configuration not stated) | 214 °C |
| CC1(C)OC(=O)C(=Cc2ccc(-c3ccccc3[N+](=O)[O-])o2)C(=O)O1 | 153 °C |
| CC(=O)c1c(-c2c(Cl)cccc2Cl)noc1C | 72 to 74 °C |

stdin: Respond only with melting point recorded for "CC(=O)C(Cl)C(C)=O"
stdout: -15 °C

stdin: For the compound "Cc1nc(-c2ccccc2)sc1S(=O)(=O)Cl" , report melting point.
stdout: 76 to 78 °C

stdin: Report melting point for "Cc1[nH]c2cc(C(F)(F)F)ccc2c1C(=O)N1CCCCC1"
stdout: 174 to 175 °C

stdin: Quote melting point reported for "CC(=O)Nc1ccccc1CCNC(=O)c1ccc2ccccc2c1O" please.
stdout: 225 to 227 °C

stdin: Give me measured melting point, please, for this compound: "O=C(Cl)c1ccc2c(c1)OCCO2"
stdout: 100 to 101 °C

stdin: Hello, please tell me recorded melting point for this one: "Cc1ccc2[nH]c(S)nc2c1"
stdout: 290 to 293 °C

stdin: Please give measured melting point of the following entry: CC(=O)N1C(=O)N2CCc3ccccc3C2(c2ccc(Cl)cc2)C1=O (configuration not stated)
stdout: 135 to 136 °C

stdin: For "COc1ccc(OC)c2ccccc12" , write its melting point.
stdout: 85 to 86 °C
